Target: DNA polymerase beta (Homo sapiens) (UniProt P06746)
Assay: qHTS Assay for Inhibitors of DNA Polymerase Beta
Conditions: Pol beta primer extension/strand displacement, fluorescence kinetic; series mostly up to 114 µM
About 4,500 (1.3%) of roughly 340,000 compounds were called active. Roughly 5% stayed inconclusive and do not appear here. The call rests on the fitted dose curve; in most records, active means well fitted inhibition curve with a large enough effect; inconclusive means small, poorly fitted or top-dose-only effect, or another doubt; inactive means no such curve, though single readings can be large or run the other way. Shown is part of a subset that was picked to be rich in actives.
Classes used: active, inactive

>  <compound>
CCOc1cc(-c2nnc(SCC(=O)NC3CCCCC3)nc2-c2ccc(OC)c(OCC)c2)ccc1OC

>  <target under test>
DNA polymerase beta (Homo sapiens) (UniProt P06746)

>  <label value>
inactive

$$$$
>  <compound>
CCOCCCNC(=O)c1cn(CC)c2ccc(S(=O)(=O)N3CCc4ccccc4C3)cc2c1=O

>  <target under test>
DNA polymerase beta (Homo sapiens) (UniProt P06746)

>  <label value>
inactive

$$$$
>  <compound>
COc1ccc(C(=O)Nc2cccc(C(=O)OCc3cc(=O)n4c5c(sc4n3)CCCC5)c2)cc1

>  <target under test>
DNA polymerase beta (Homo sapiens) (UniProt P06746)

>  <label value>
inactive

$$$$
>  <compound>
Cc1ccsc1-c1cc(C(=O)O)c2c(ccc3ccccc32)n1

>  <target under test>
DNA polymerase beta (Homo sapiens) (UniProt P06746)

>  <label value>
inactive

$$$$
>  <compound>
CCc1nn(CC(=O)N2CCN(CC)CC2)c(=O)c2cccn12

>  <target under test>
DNA polymerase beta (Homo sapiens) (UniProt P06746)

>  <label value>
inactive

$$$$
>  <compound>
CCCN1CCN(C(=O)Cn2ncc3ccccc32)CC1

>  <target under test>
DNA polymerase beta (Homo sapiens) (UniProt P06746)

>  <label value>
active

$$$$
>  <compound>
Cc1cccc(NC(=O)CSc2nc(-c3ccco3)cc(C(F)(F)F)n2)c1C

>  <target under test>
DNA polymerase beta (Homo sapiens) (UniProt P06746)

>  <label value>
inactive

$$$$
>  <compound>
Cc1cccc(N2CCN(S(=O)(=O)c3ccc(-c4cc(C)no4)s3)CC2C)c1 (stereo not given)

>  <target under test>
DNA polymerase beta (Homo sapiens) (UniProt P06746)

>  <label value>
inactive

$$$$
>  <compound>
COc1cccc(-c2nc(CS(=O)(=O)CC(=O)N3CCN(c4cc(C)ccc4C)CC3)c(C)o2)c1

>  <target under test>
DNA polymerase beta (Homo sapiens) (UniProt P06746)

>  <label value>
inactive

$$$$
>  <compound>
CCOC(=O)c1c(C)oc2nc(C)nc(Nc3ccc(CC)cc3)c12

>  <target under test>
DNA polymerase beta (Homo sapiens) (UniProt P06746)

>  <label value>
inactive

$$$$
